molecular target: UniProt Q5I942; assay: Effect of metal ions and chemical reagents on amylase activity; assay type: biochemical; conditions: pH 8.0, 65° C., 1 mM, 2 mM and 5 mM
Sequence (Q5I942 24-532): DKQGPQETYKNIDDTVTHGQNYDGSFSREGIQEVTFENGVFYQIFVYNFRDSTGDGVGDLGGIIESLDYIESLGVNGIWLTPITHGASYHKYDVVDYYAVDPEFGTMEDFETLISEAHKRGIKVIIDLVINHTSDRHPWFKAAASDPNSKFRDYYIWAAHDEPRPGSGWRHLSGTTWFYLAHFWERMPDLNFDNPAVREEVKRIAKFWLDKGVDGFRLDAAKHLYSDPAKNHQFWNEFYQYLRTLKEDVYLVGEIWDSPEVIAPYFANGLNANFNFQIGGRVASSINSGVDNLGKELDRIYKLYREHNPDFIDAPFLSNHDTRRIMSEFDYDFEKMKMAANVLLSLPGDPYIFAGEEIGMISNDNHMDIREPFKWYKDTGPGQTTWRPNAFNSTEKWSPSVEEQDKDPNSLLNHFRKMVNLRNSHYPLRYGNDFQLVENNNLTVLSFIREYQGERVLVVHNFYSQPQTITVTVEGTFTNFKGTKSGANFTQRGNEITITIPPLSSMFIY
readout type: effect of metal ions on amylase activity

Query: // returns reported effect of metal ions on amylase activity for input [Mg+2]
Response: Moderate inhibition

Query: // returns reported effect of metal ions on amylase activity for input [Ni+2]
Response: Moderate inhibition

Query: // returns reported effect of metal ions on amylase activity for input [Zn+2]
Response: Moderate inhibition

Query: // returns reported effect of metal ions on amylase activity for input [Cu+2]
Response: Strong inhibition

Query: // returns reported effect of metal ions on amylase activity for input [Fe+2]
Response: Strong inhibition

Query: // returns reported effect of metal ions on amylase activity for input [V+4]
Response: Strong inhibition

Read the next record carefully.
Query: // returns reported effect of metal ions on amylase activity for input [Cr+6]
Response: Strong inhibition
